Test system: HeLa cells
Assay: HeLa cell assay (cytotoxicity)
Assay type: cell-based
Conditions: Homo sapiens; Table 2; HeLa cells, 48 hours, resazurin; read-out: HeLa IC50
Protocol: HeLa cells were cultured in DMEM medium supplemented with 10% fetal bovine serum and antibiotics (penicillin/streptomycin/amphotericin B) at 37 °C in a 5% CO2 incubator. On the day prior to compound addition, cells were plated in 96-well plates at 2 × 10^4 cells per well. […] Twenty μl resazurin reagent (0.5 mM resazurin in phosphate-buffered saline) was added to each well and, after a 2-hour incubation, fluorescence (Exc560/Em590) was measured in a plate reader. […]
measured_parameter: IC50

Take a look at these entries with their results.
>  <structure_smiles_string>
COC(=O)c1c(NC(=O)c2c(F)c(F)c(F)c(F)c2F)sc2c1CCCCC2

>  <target_or_system>
HeLa cells

>  <measured>
> 25 µM

$$$$
>  <structure_smiles_string>
CN(C)c1cc(NC(=O)Nc2ccccc2)c2ccccc2n1

>  <target_or_system>
HeLa cells

>  <measured>
> 25 µM

$$$$

The record that follows has no IC50 shown yet.
Documented IC50 of `CCOC(=O)c1c(NC(=O)c2c(F)c(F)c(F)c(F)c2F)sc(C(N)=O)c1C` : > 25 µM
